Assay: qHTS of pediatric cancer cell lines to identify multiple opportunities for drug repurposing: Confirmatory screen for NB-EBc1 cells (AID 1347115);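 note: cells exposed to compound for 48 h before the viability read; nearly all actives have a fitted effect of over 45% in size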
Details: NB-EBc1 neuroblastoma cells, viability (cytotoxicity); series mostly up to 45.9 µM
Protocol: Drug repurposing or repositioning has been offered as a strategy for drug development in oncology programs. […] [1] Shen, M et al. Quantitative high-throughput phenotypic screening of pediatric cancer cell lines identifies multiple opportunities for drug repurposing. […] Cells were assayed in growth media at a density of 500-1,000 cells/well. […] After a 15 min incubation at room temperature, samples were analyzed for luminescence intensity using a ViewLux High-throughput CCD imager equipped with clear filters.
Inconclusive results are not listed. The source made the active and inactive calls. Calls come from the whole dose curve; as a rule, active = well fitted cell-killing curve with a large enough effect; inconclusive = small, poorly fitted or top-dose-only effect, or effect the other way; inactive = no such curve, though single readings can be large or run the other way.
Your answer must be one of the following: t (active), f (inactive)

Past entries and their recorded results:
| Input Smiles | Class Label |
| --- | --- |
| COC(=O)[C@@H]1[C@H]2C[C@@H]3c4[nH]c5ccccc5c4CCN3C[C@@H]2CC[C@@H]1O | f |
| COc1ccc(C(C)=O)c(O)c1 | f |
| C=CCNC1=C2C[C@@H](C)C[C@H](OC)[C@@H](O)[C@@H](C)C=C(C)[C@H](OC(N)=O)[C@@H](OC)C=CC=C(C)C(=O)NC(=CC1=O)C2=O | t |

In the following, a different compound is considered.
Field: outcome | Entry: `Cn1c(Nc2ccc(C(F)(F)F)cc2)nc2cc(Oc3ccnc(-c4ncc(C(F)(F)F)[nH]4)c3)ccc21`
t

###

Assay: qHTS of pediatric cancer cell lines to identify multiple opportunities for drug repurposing: Primary screen for BT-37 cells (AID 1347094)
Conditions: BT-37 viability, CellTiter-Glo luminescence, 48 h; series mostly up to 57.3 µM
Inconclusive results are not listed. Active and inactive are the calls of the source. The call rests on the fitted dose curve; in most records, active means well fitted cell-killing curve with a large enough effect; inconclusive means small, poorly fitted or top-dose-only effect; inactive means flat fitted curve, though single readings scatter.
Your answer must be one of the following: 1.0 (active), 0.0 (inactive)

| Input Smiles | Class Label |
| --- | --- |
| C[C@@H](Oc1ccc2[nH]nc(C=Cc3cnn(CCO)c3)c2c1)c1c(Cl)cncc1Cl | 1.0 |
| O=C(CN1C(=O)C2(CCCC2)NC[C@H]1c1cc(F)cc(F)c1)Nc1ccc2c(c1)C[C@@]1(C2)C(=O)Nc2ncccc21 | 0.0 |
| CC(=O)OC[C@@H]1O[C@@H](n2ccc(=O)[nH]c2=O)[C@H](OC(C)=O)[C@H]1OC(C)=O | 0.0 |
| CCOC(=O)N1CCN([N+]([O-])=NOc2ccc([N+](=O)[O-])cc2[N+](=O)[O-])CC1 | 1.0 |

Field: outcome | Entry: `CC(C)(N)c1ccc(-c2nc3ccccc3nc2-c2ccccc2)cc1`
1.0

Field: outcome | Entry: `COc1cc([C@@H]2c3cc4c(cc3[C@@H](O[C@@H]3O[C@@H]5CO[C@@H](c6cccs6)O[C@@H]5[C@H](O)[C@@H]3O)[C@H]3COC(=O)[C@H]23)OCO4)cc(OC)c1O`
1.0

Field: outcome | Entry: `CC(C)(C)[N+]([O-])=Cc1ccc(S(=O)(=O)O)cc1S(=O)(=O)O`
0.0

Field: outcome | Entry: `C=C(C)[C@@H]1CC[C@]2(C)CC[C@]3(C)[C@H](CC[C@@H]4[C@@]5(C)CC[C@H](O)C(C)(C)[C@H]5CC[C@]43C)[C@@H]12`
0.0

###

// reported max response per item
Experiment: qHTS Assay for Lipid Storage Modulators (AID 1519)
Settings: Drosophila S3 cells, BODIPY lipid droplet/cell ratio, laser cytometry; measured here: lipid channel max response; cells loaded with oleic acid
Results filed as inconclusive are left out.
Expressed in %, but write only the number.

| Compound | max response [%] |
| --- | --- |
| CC(Cc1ccc(O)c(O)c1)(NN)C(=O)O (configuration not stated) | 8.76 |

max response for `CN(C)CC[C@H](c1ccc(Cl)cc1)c1ccccn1` ?
4.57

max response for COc1ccc2c(c1OC)C(=O)OC2[C@H]1c2c(cc3c(c2OC)OCO3)CCN1C (some centres not stated) ?
-9.72

max response for Oc1cc2c(cc1O)C1c3ccc(O)c(O)c3OCC1(O)C2 (configuration not stated) ?
5.65

max response for `O=c1c(O)c(-c2ccc(O)c(O)c2)oc2cc(O)ccc12` ?
-24.1

max response for `C[C@@]12C(=O)OC(=O)[C@@]1(C)C1CCC2O1` ?
-21.9

max response for CN(N=O)C(=O)N[C@H]1C(O)OC(CO)[C@@H](O)[C@H]1O (some centres not stated) ?
8.35

###

Experiment: Quantitative High-Throughput drug screen in 47 multiple myeloma cell lines against the NCATS MIPE library collection: Karpas25_ECACC cell viability assay (AID 1918968; note: nearly all actives have a fitted effect of over 35% in size)
Conditions: Karpas25 myeloma viability, CellTiter-Glo ATP, 48 h; series mostly up to 45.8 µM
Results filed as inconclusive are left out. Active and inactive are the calls of the source. The call rests on the fitted dose curve; in most records, active means well fitted cell-killing curve with a large enough effect; inconclusive means small, poorly fitted or top-dose-only effect, or effect the other way; inactive means no such curve, though single readings can be large or run the other way.
Your answer must be one of the following: class 1 for active, class 0 for inactive

| Compound | Class Label |
| --- | --- |
| CC(=O)N1CCN(c2ccc(OCc3nn(C)c(C)c3-c3cccc4c(CCCOc5cccc6ccccc56)c(C(=O)O)n(Cc5cccnc5)c34)cc2)CC1 | class 1 |
| C=CC(=O)Nc1cc(NC(=O)c2ccc(C)c(NC(=O)c3ccno3)c2)cc(C(F)(F)F)c1 | class 1 |
| Cc1cc(-c2nnc3n2CCCCC3)c(C)n1-c1ccccc1 | class 0 |
| C=CC(=O)Nc1ccc2ncnc(Nc3ccc(OCc4cccc(F)c4)c(Cl)c3)c2c1 | class 1 |
| C#CCC(Cc1cnc2nc(N)nc(N)c2n1)c1ccc(C(=O)N[C@@H](CCC(=O)O)C(=O)O)cc1 (some centres undefined) | class 1 |

Field: outcome | Entry: `CN1CCc2c(c3ccccc3n2Cc2ccc(C(=O)NO)cc2)C1`
class 1

Field: outcome | Entry: `CC1(C)CC(O)CC(C)(C)N1[O]`
class 0

Field: outcome | Entry: `COc1ccc([C@@H]2CNC(=O)C2)cc1OC1CCCC1`
class 1

Field: outcome | Entry: `COc1cc(OC)cc(-c2ccc3ncc4ccc(=O)n(-c5ccc(N6CCNCC6)c(C(F)(F)F)c5)c4c3c2)c1`
class 1

###

Assay: Quantitative High-Throughput drug screen in 47 multiple myeloma cell lines against the NCATS MIPE library collection: KMS27_JCRB cell viability assay (AID 1918970); note: nearly all actives have a fitted effect of over 30% in size
Details: KMS27 myeloma cells, CellTiter-Glo ATP viability, 48 h
Results filed as inconclusive are left out. Calls of active or inactive are those of the source. The call rests on the fitted dose curve; in most records, active means well fitted cell-killing curve with a large enough effect; inconclusive means small, poorly fitted or top-dose-only effect, or effect the other way; inactive means no such curve, though single readings can be large or run the other way.
Your answer must be one of the following: active, inactive

| Compound | Class Label |
| --- | --- |
| COc1cccc2c1C(=O)c1c(O)c3c(c(O)c1C2=O)C[C@@](O)(C(=O)CO)C[C@H]3O[C@H]1C[C@H](N)[C@H](O)[C@H](C)O1 | active |

Field: outcome | Entry: `CC(C)N1[N]C(=C2C=c3cc(O)ccc3=N2)c2c(N)ncnc21`
active

Field: outcome | Entry: `COc1cccc2c1C(=O)c1c(O)c3c(c(O)c1C2=O)C[C@@](O)(C(C)=O)C[C@H]3O[C@H]1C[C@H](N)[C@H](O)[C@H](C)O1`
active

Field: outcome | Entry: `O=C1c2c(O)cccc2[C@@H]([C@@H]2O[C@H](CO)[C@@H](O)[C@H](O)[C@H]2O)c2cc(CO)cc(O)c21`
inactive

Field: outcome | Entry: `CC(C=CC=C(C)C=CC1=C(C)CCCC1(C)C)=CC=CC=C(C)C=CC=C(C)C=CC1=C(C)CCCC1(C)C`
active

Field: outcome | Entry: `O=c1[nH]c(=O)n([C@H]2C[C@@H](O)[C@@H](CO)O2)cc1F`
active

Field: outcome | Entry: `C[C@H](NCc1ccc(OCc2cccc(F)c2)cc1)C(N)=O`
active

Field: outcome | Entry: `N#Cc1cc(NC(=O)Nc2nnc(-c3ccncc3)s2)ccc1-c1cn[nH]c1`
inactive

Field: outcome | Entry: CCCNC(=O)[C@H]1O[C@H]1C(=O)N[C@H](C(=O)N1CCC[C@@H]1C(=O)OC)C(C)CC (some centres not stated)
active

Field: outcome | Entry: `C[C@@H](Oc1ccc2[nH]nc(C=Cc3cnn(CCO)c3)c2c1)c1c(Cl)cncc1Cl`
inactive

###

Experiment: qHTS of pediatric cancer cell lines to identify multiple opportunities for drug repurposing: Primary screen for DAOY cells (AID 1347090); note: nearly all actives have a fitted effect of over 55% in size
Settings: DAOY medulloblastoma viability, CellTiter-Glo luminescence, 48 h; series mostly up to 46 µM
Records with an inconclusive call do not appear. Calls of active or inactive are those of the source. Calls follow the shape of the dose curve; as a rule, active = well fitted cell-killing curve with a large enough effect; inconclusive = small, poorly fitted or top-dose-only effect; inactive = flat fitted curve, though single readings scatter.
Your answer must be one of the following: 1.0 = active, 0.0 = inactive

| Compound | Class Label |
| --- | --- |
| C[C@@H](NCc1cc2ccccc2[nH]1)c1cccc2ccccc12 | 0.0 |
| NC(=NCCCCCCN=C(N)N=C(N)Nc1ccc(Cl)cc1)N=C(N)Nc1ccc(Cl)cc1 | 1.0 |
| C#Cc1cccc(Nc2ncnc3cc(OCCOC)c(OCCO)cc23)c1 | 1.0 |
| NC[C@H]1O[C@H](O[C@H]2[C@@H](O)[C@@H](O[C@H]3O[C@H](CO)[C@@H](O)[C@H](N)[C@@H]3O)[C@H](N)C[C@@H]2N)[C@H](N)C[C@H]1O | 0.0 |
| Nc1ccn(C2CO[C@H](CO)O2)c(=O)n1 (stereo partly specified) | 0.0 |

In the following, a different compound is considered.
Field: outcome | Entry: `COc1cc(C=CC(=O)CC(=O)C=Cc2ccc(O)c(OC)c2)ccc1O`
1.0
